system: EKVX NSCLC; assay: NCI tumour cell line growth inhibition, 48 h
molecules and their reported TGI
Form entry: value (µM) — number only.

Below, 2 molecules whose answers are already recorded.
>  <molecule>
COc1ccc(Nc2ncc(I)c(NCCCNC(=O)C3CCC3)n2)cc1

>  <units_label>
µM

>  <TGI>
76.6

$$$$
>  <molecule>
C[C@]12CC[C@H]3[C@@H](CC=C4C[C@@H](O)CC[C@@]43C)[C@@H]1C/C(=C\c1ccncc1)[C@@H]2O

>  <units_label>
µM

>  <TGI>
49.1

$$$$

Query CC1(O)CC2C(CC1SC1CC3C(CC1(C)O)C3(C)C)C2(C)C (centres undefined) yields TGI of 83.9

Record CC(C)[C@@]12C[C@@H](OC(=O)C3CO3)[C@@](C)(O1)[C@@H]1CC[C@@H](C)[C@H]1[C@@H]2OC(=O)/C=C/c1ccccc1 (some centres undefined) . Reported TGI: 50.9

====

tested on: HT29 colon; assay: NCI tumour cell line growth inhibition, 48 h
value_type: TGI

>  <compound>
CC(=O)N1c2ccccc2N(C(C)=O)C1c1ccc(C2N(C(C)=O)c3ccccc3N2C(C)=O)[nH]1

>  <value_observed>
> 100 µM

$$$$

For COc1c(Sc2c(SCSc3cnc4ccccc4c3Sc3cnc4ccccc4c3OC)cnc3ccccc23)cnc2ccccc12 the compound record lists TGI as > 100 µM

TGI recorded for this compound, COc1ccccc1C#C/C=C\C#Cc1ccccc1C#N , is > 100 µM

The compound identified as O=C1OC(c2ccc(O)cc2)(c2ccc(O)cc2)c2ccc(Cl)c3cccc1c23 (tested in a mixture with another compound) registered its TGI at 23.9 µM

# TGI (compound: CCN(CC)CCCNc1ccc([N+](=O)[O-])c2nc3ccccc3c(N)c12 ) is 1.81 µM

Notebook: O=C1Nc2cccc(Cl)c2/C1=C\c1cccnc1 , TGI read as > 100 µM

Sure, the documented TGI for Cc1csc2nc(-c3cccc([N+](=O)[O-])c3)c(/C=N/N=C(N)N)n12 is 3.27 µM

Item: O=c1[nH]c(-c2ccc(Cl)c(Cl)c2)cn1-c1ccc(Cl)cc1 | TGI: > 100 µM

Recorded TGI (compound c1ccc(CSC(SCc2ccccc2)c2cccc3ccccc23)cc1 ): > 10 µM

Given item COc1ccc2cc3c4cc(OC)c(OC)cc4ccn3c2c1 , the value recorded as its TGI is > 100 µM

The reported value for FC(F)(F)c1ccc2c(-c3cc[nH]c3)ccnc2c1 in terms of TGI is 39.2 µM

====

Listed here: items and their measured TGI.
test system: IGROV1 ovarian; assay: NCI tumour cell line growth inhibition, 48 h

Examples with answers:
>  <compound>
CCCCCCCCCCC/C=C(/C(=O)CCCO[Si](C)(C)C(C)(C)C)C(=O)OC

>  <value_observed>
> 100 µM

$$$$
>  <compound>
COc1cccc(/C=C2\CCC(CN(C)C)C2=O)c1 (centres undefined)

>  <value_observed>
23.4 µM

$$$$
>  <compound>
CC[C@]12CN3CCc4c([nH]c5ccccc45)[C@@](C(=O)OC)(c4cc5c(cc4OC)N(C)[C@H]4[C@@](O)(C(=O)OC)[C@H](OC(C)=O)[C@]6(CC)C=CCN7CC[C@]54[C@@H]76)CC(C3)[C@H]1O2 (some centres undefined)

>  <value_observed>
> 100 µM

$$$$

TGI measured on COc1ccc(C2(Cl)C(Cl)(C(F)(F)F)C2(Cl)C(F)(F)F)cc1 (centres undefined) = 30.8 µM

Measured TGI of CN(C)CC1(C)CC/C(=C\c2ccc(Cl)cc2)C1=O (centres undefined) : > 100 µM
